biological target: UniProtKB Q16739; assay: Evaluation of inhibitory activities against GCS (enzyme reaction with A549 cell lysate, NBD C6-ceramide, HPLC fluorescence); details: GCS activity in A549 cell lysate, 37° C. for 90 minutes
Provide the reported pIC50 of each item.
The read-out pIC50 is expressed as -log10 of concentration in moles per litre.

IN: Sample O=C(NC1CCCc2cc(-c3ccc4c(c3)OCC4)ccc21)O[C@@H]1CN2CCC1CC2 (some centres unmarked) — what was its pIC50?
OUT: 8.12

IN: Fill in: pIC50 of Cc1cc(-c2ccc3c(c2)CCCC3NC(=O)O[C@@H]2CN3CCC2CC3)ccn1 (some centres unmarked) is ___
OUT: 7.48

IN: For the compound O=C(NC1CCCc2ccc(-c3ccccc3F)cc21)O[C@@H]1CN2CCC1CC2 (some centres unmarked) , what pIC50 is on record?
OUT: 8.07

IN: Consider the compound COc1cc(OC)cc(-c2ccc3c(c2)CCC(C)(C)C3NC(=O)O[C@@H]2CN3CCC2CC3)c1 (some centres unmarked) and give its measured pIC50.
OUT: 8.92

IN: Name the reported pIC50 value associated with the compound O=C(NC1CCCc2ccc(-c3ccccc3C(F)(F)F)cc21)O[C@@H]1CN2CCC1CC2 (some centres unmarked)
OUT: 8.17

IN: Need pIC50, item CC(C)(C)c1ccc(-c2ccc3c(c2)CCC2(CC2)C3NC(=O)O[C@@H]2CN3CCC2CC3)cc1 (some centres unmarked)
OUT: 8.18

IN: Quick one: pIC50 for COc1ccc(-c2ccc3c(c2)CCC(C)(C)C3NC(=O)O[C@@H]2CN3CCC2CC3)cc1F (some centres unmarked) ?
OUT: 9.08

IN: Reported pIC50, compound COc1cccc(OC)c1-c1ccc2c(c1)CCC(C)(C)C2NC(=O)O[C@@H]1CN2CCC1CC2 (some centres unmarked) : ____
OUT: 8.04

---

Please go through the items and note down their pIC50.
target: glucosylceramide synthase (GCS) (Homo sapiens (Human), UniProt Q16739); assay: Evaluation of inhibitory activities against GCS (enzyme reaction with A549 cell lysate, NBD C6-ceramide, HPLC fluorescence); conditions: GCS activity in A549 cell lysate, 37° C. for 90 minutes
Sequence (Q16739 whole entry, looked up): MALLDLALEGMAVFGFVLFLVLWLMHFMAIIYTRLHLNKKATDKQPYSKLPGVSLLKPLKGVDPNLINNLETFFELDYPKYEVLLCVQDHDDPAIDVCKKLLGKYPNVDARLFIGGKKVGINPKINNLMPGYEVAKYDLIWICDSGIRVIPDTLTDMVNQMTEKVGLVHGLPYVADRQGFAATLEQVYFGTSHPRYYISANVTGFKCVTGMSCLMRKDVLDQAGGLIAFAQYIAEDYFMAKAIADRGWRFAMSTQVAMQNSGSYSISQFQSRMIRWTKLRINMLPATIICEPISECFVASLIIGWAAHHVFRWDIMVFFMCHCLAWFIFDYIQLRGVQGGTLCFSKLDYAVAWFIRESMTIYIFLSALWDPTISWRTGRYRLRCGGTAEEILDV
Quick note: pIC50 means taking -log10 of the concentration in moles per liter.

IN: Query pIC50 on glucosylceramide synthase (GCS) (Homo sapiens (Human), UniProt Q16739) for Cc1cc(-c2ccc3c(c2)CCC(C)(C)C3NC(=O)O[C@@H]2CN3CCC2CC3)ccn1 (some centres unmarked)
OUT: 7.52

IN: Form field: pIC50 recorded for CC(C)c1cccc(-c2ccc3c(c2)CCC(C)(C)C3NC(=O)O[C@@H]2CN3CCC2CC3)c1 (some centres unmarked) with glucosylceramide synthase (GCS) (Homo sapiens (Human), UniProt Q16739) (enter value)
OUT: 8.68

IN: State its pIC50 on glucosylceramide synthase (GCS) (Homo sapiens (Human), UniProt Q16739): CC(C)c1ccc(-c2ccc3c(c2)CCC2(CC2)C3NC(=O)O[C@@H]2CN3CCC2CC3)cc1 (some centres unmarked)
OUT: 8.62

IN: Return pIC50 measured with glucosylceramide synthase (GCS) (Homo sapiens (Human), UniProt Q16739) given this molecule: O=C(NC1CCCc2cc(-c3ccc4c(c3)OCCO4)ccc21)O[C@@H]1CN2CCC1CC2 (some centres unmarked)
OUT: 8.22

IN: Please provide the recorded pIC50 for CCOc1ccc(-c2ccc3c(c2)CCC(C)(C)C3NC(=O)O[C@@H]2CN3CCC2CC3)cc1Cl (some centres unmarked) , tested on glucosylceramide synthase (GCS) (Homo sapiens (Human), UniProt Q16739).
OUT: 8.83

IN: Request - read-out pIC50 | tested on glucosylceramide synthase (GCS) (Homo sapiens (Human), UniProt Q16739) | molecule CCCc1ccc(-c2cc3c(cc2F)C(NC(=O)O[C@@H]2CN4CCC2CC4)C(C)(C)CC3)cc1 (some centres unmarked)
OUT: 9.51

IN: Enter reported pIC50 observed with glucosylceramide synthase (GCS) (Homo sapiens (Human), UniProt Q16739) for CCCOc1ccc(-c2ccc3c(c2)C(NC(=O)O[C@@H]2CN4CCC2CC4)CCC3)cc1 (some centres unmarked)
OUT: 7.52

IN: Fill in the recorded pIC50 for this molecule, with glucosylceramide synthase (GCS) (Homo sapiens (Human), UniProt Q16739) as test system: O=C(NC1CCCc2cc(-c3ccc(F)cc3)ccc21)O[C@@H]1CN2CCC1CC2 (some centres unmarked)
OUT: 8.17
